FYI, the data here is from patent US20190315842A1.

targetSystem: histones
experimentSummary: AtheNA Multi-Lyte ANA, Ab at 50 ug/ml
measuredEndpoint: AtheNA signal
Could you respond with only the numeric value?

Q. May I ask what AtheNA signal has been recorded for Ab7957/293i (antibody, IgG1, V domains shown) VH: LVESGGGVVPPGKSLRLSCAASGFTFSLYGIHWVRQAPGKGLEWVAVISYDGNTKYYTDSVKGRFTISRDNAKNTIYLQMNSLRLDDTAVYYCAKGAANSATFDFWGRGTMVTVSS VL: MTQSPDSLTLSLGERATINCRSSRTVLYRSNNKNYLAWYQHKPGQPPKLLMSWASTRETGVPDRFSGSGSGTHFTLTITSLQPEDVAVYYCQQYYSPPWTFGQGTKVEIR ?
A. 15

Q. May I ask what AtheNA signal has been recorded for Ab7961/293i (antibody, IgG1, V domains shown) VH: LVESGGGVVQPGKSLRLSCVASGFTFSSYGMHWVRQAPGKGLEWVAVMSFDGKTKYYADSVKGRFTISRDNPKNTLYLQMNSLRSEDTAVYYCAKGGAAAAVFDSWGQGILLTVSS VL: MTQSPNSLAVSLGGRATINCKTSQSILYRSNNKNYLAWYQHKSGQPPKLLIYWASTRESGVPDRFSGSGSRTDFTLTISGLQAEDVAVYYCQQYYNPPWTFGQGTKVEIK ?
A. 77

Q. May I ask what AtheNA signal has been recorded for Ab7955 (antibody, V domains shown) VH: LVESGGGVVRPGRSLRLSCVASGFTFNAYGMHWVRQGPGKGLEWLAVISYEGKTVYYADSVKDRFTISRDNSRNTVSLHLNNLRGEDTAVYYCAKGSASAAVLQHWGQGTLVSVTS VL: MTQSPGSLAVSLGSRATINCKSSRSLLYRSNNKNYLAWYQQKPGQSPRLLIYWASSRESGVPDRFSGGGSGTSFTLTISSLQAEDVAVYYCQQYFNPPWTFGQGTKVEIK ?
A. 90
